Hello, the source for this data is the METLIN SMRT retention time set (Domingo-Almenara et al. 2019), in case you need it.

Experiment: gradient 5% acetonitrile 3 min, to 50% in 2 min, to 85% in 15 min, held 3 min, 100 µL/min
Settings: column: Zorbax Extend-C18 2.1 x 50 mm; eluents: water / acetonitrile, 0.1% formic acid
Readout Label: RP-LC retention time (s)

Compound	Recorded Measurement
O=C(CSCc1cnn(-c2ccccc2)c1-n1cccc1)N1CCN(c2ccccn2)CC1	690
O=C(Cc1cccs1)N1CCC[C@H]1c1nc(-c2ccccc2)n[nH]1	711
NC(=O)c1c(NC(=O)C2COc3ccccc3O2)sc2c1CCN(Cc1ccccc1)C2 (stereo unspecified)	587
COc1ccccc1NC(=O)C1CCN(S(=O)(=O)c2cc(-c3noc(C)n3)cs2)CC1	918
O=C(NCCc1ccc(N2CCCC2)cc1)C(=O)Nc1ccc2c(c1)OCCO2	844
O=C(NCc1cccc(C(F)(F)F)c1)C1CCN(c2ccc(SCc3ccccc3)nn2)CC1	871
CC(C(=O)NCCc1cccs1)n1c2ccccc2c2cnn(C)c(=O)c21 (stereo unspecified)	855
COc1cccc(-n2c(N3CCCC(C(=O)Nc4ccc(F)c(F)c4)C3)nc3ccsc3c2=O)c1 (stereo unspecified)	993
Cc1ccccc1Cn1c(C)c(CNCCc2ccco2)c(C(=O)O)c1C	738
CC(=O)N1CCc2cc(N3CC(C(=O)N4CCC5(CC4)OCCO5)CC3=O)ccc21 (stereo unspecified)	620
Cn1c(SCC(N)=O)nnc1-c1sc2cc(Cl)ccc2c1Cl	702
CN(C)CCNc1oc(-c2ccc(COc3ccc(Cl)cc3)o2)nc1C#N	988
COc1ccc(Cl)cc1NC(=O)NC1CCN(c2ccc(C)cc2)C1=O (stereo unspecified)	931
COc1ccc(C2CCN(S(=O)(=O)c3cccc(C(F)(F)F)c3)C2)cc1 (stereo unspecified)	1060
CCC[C@@H]1C[C@@H](C(=O)N[C@@H]([C@H]2O[C@H](SC)[C@H](O)[C@@H](O)[C@@H]2O)[C@@H](C)O)N(C)C1	595
CN1CC(=O)N(CC(=O)Nc2ccc(Cl)c(C(F)(F)F)c2)c2ccccc2C1=O	826
CCN1C(=O)COc2ccc(-c3noc(CNS(=O)(=O)c4ccc(Cl)cc4)n3)cc21	904
CCCNC(=O)C1CCCN(c2ccc(SCC(=O)Nc3ccccc3C(=O)OCC)nn2)C1 (stereo unspecified)	750
CCCNC(=O)C1CCCN(c2nc3ncn(CC(=O)Nc4cc(C)ccc4C)c(=O)c3s2)C1 (stereo unspecified)	703
CC(C)(C)n1cc(C(=O)c2ccccc2)cc1-c1ccccc1	1350
COc1cc(-c2noc(Cn3nc4ccc(-c5ccccc5)nn4c3=O)n2)cc(OC)c1OC	862

* * *

Assay: gradient 5% acetonitrile 3 min, to 50% in 2 min, to 85% in 15 min, held 3 min, 100 µL/min
Conditions: column: Zorbax Extend-C18 2.1 x 50 mm; eluents: water / acetonitrile, 0.1% formic acid
Recorded RP-LC retention time, one value per entry.
Readout Label: RP-LC retention time (s)

Compound	Readout Label	Recorded Measurement
CN(C)c1cccc(C(=O)Nc2cc(-c3ccccn3)no2)c1	RP-LC retention time	776
Cc1ccc(N2CC(c3noc(-c4ccccn4)n3)CC2=O)cc1 (stereo not drawn)	RP-LC retention time	797
COCCC(=O)NC1CCN(C2=NS(=O)(=O)C(c3ccc(C(C)C)cc3)=C2C)CC1	RP-LC retention time	813
CC(C)CCNC(=O)C1CCCN(c2ncnc3c2oc2ccccc23)C1 (stereo not drawn)	RP-LC retention time	786
O=C([C@@H]1C[C@H](F)CN1C(=O)Cc1ccccc1F)N1CCCCC1	RP-LC retention time	684
CCOC(=O)c1ccc(Nc2c(C(=O)N3CCCCC3CC)cnc3nc(C)ccc23)cc1 (stereo not drawn)	RP-LC retention time	701
CCN1C(=O)COc2ccc(-c3csc(NC(=O)c4ccc(F)cc4)n3)cc21	RP-LC retention time	989
O=C(NCCCN1CCCC1=O)c1ccc2nc(CCc3ccccc3)oc2c1	RP-LC retention time	754
CCc1ccc(CNC(=O)CCCN2C(=O)CCn3nc(C)cc32)cc1	RP-LC retention time	726
CCOC(=O)C1=C(CN2CCC(Cc3ccccc3)CC2)NC(=O)NC1c1cccs1 (stereo not drawn)	RP-LC retention time	884
Cc1cc(-c2nnc(-c3ccco3)o2)c(C)n1CC(=O)NCc1ccc(F)cc1F	RP-LC retention time	857
O=C(c1cccc(-n2cnnn2)c1)N1CCC(c2nnc(-c3ccco3)s2)CC1	RP-LC retention time	651
CCN1c2cc(Cl)ccc2C(=O)NC12CCN(C(=O)Nc1ccc(OC)cc1C)CC2	RP-LC retention time	841
